Assay: phase I plasma pharmacokinetics (non-compartmental, LC-MS/MS)
Format: in vivo, human
Settings: human, plasma, po, 350 mg, single oral administration, 350 mg larotinib mesylate, plasma; read-out: Cmax, mean (min–max)
Where a name gives a salt, the structure may show the parent alone.
measuredEndpoint: Cmax

Any idea what Cmax was measured for COc1cc2ncnc(Nc3ccc(F)c(Cl)c3)c2cc1OCCCN1C[C@@H]2OCCO[C@@H]2C1 [larotinib mesylate] ?
300 ng/mL

====

Assay: phase I plasma pharmacokinetics (non-compartmental, LC-MS/MS)
Assay type: in vivo, human
Conditions: human, plasma, po, 150 mg, multiple oral administration, 150 mg larotinib mesylate, steady state, plasma; read-out: Tmax,ss, median (min–max)
Structures can show the parent of a compound that is named as a salt.
measuredEndpoint: Tmax (h)
The reply should be a number in h, with the unit left off.

Any idea what Tmax was measured for COc1cc2ncnc(Nc3ccc(F)c(Cl)c3)c2cc1OCCCN1C[C@@H]2OCCO[C@@H]2C1 [larotinib mesylate] ?
5

====

Experiment: phase I plasma pharmacokinetics (non-compartmental, LC-MS/MS)
Format: in vivo, human
Settings: human, plasma, po, 100 mg, single oral administration, 100 mg larotinib mesylate, plasma; read-out: Cmax, mean (min–max)
Where a name gives a salt, the structure may show the parent alone.
measuredEndpoint: Cmax (ng/mL)
The reply should be a number in ng/mL, with the unit left off.

Any idea what Cmax was measured for COc1cc2ncnc(Nc3ccc(F)c(Cl)c3)c2cc1OCCCN1C[C@@H]2OCCO[C@@H]2C1 [larotinib mesylate] ?
64.1

====

Assay: phase I plasma pharmacokinetics (non-compartmental, LC-MS/MS)
Type: in vivo, human
Details: human, plasma, po, 150 mg, single oral administration, 150 mg larotinib mesylate, plasma; read-out: Tmax, median (min–max)
Where a name gives a salt, the structure may show the parent alone.
measuredEndpoint: Tmax (h)
The reply should be a number in h, with the unit left off.

Any idea what Tmax was measured for COc1cc2ncnc(Nc3ccc(F)c(Cl)c3)c2cc1OCCCN1C[C@@H]2OCCO[C@@H]2C1 [larotinib mesylate] ?
5

====

Assay: phase I plasma pharmacokinetics (non-compartmental, LC-MS/MS)
Assay type: in vivo, human
Conditions: human, plasma, po, 220 mg, single oral administration, 220 mg larotinib mesylate, plasma; read-out: Vz/F, mean (min–max)
Description: This was a phase I, single-center, open-label, dose-escalation study conducted at First Hospital of Jilin University, China (registration no.: ChiCTR-OPC-15007153 registered at http://www.chictr.org.cn). […] After cycle 0, larotinib mesylate was continuously administered once daily for 28 days in cycle 1, and the tolerance and pharmacokinetic characteristics of multiple doses were evaluated (Figure 2). […]
Where a name gives a salt, the structure may show the parent alone.
measuredEndpoint: Vd/F (L)
The reply should be a number in L, with the unit left off.

Any idea what Vd/F was measured for COc1cc2ncnc(Nc3ccc(F)c(Cl)c3)c2cc1OCCCN1C[C@@H]2OCCO[C@@H]2C1 [larotinib mesylate] ?
2720

====

Test: phase I plasma pharmacokinetics (non-compartmental, LC-MS/MS)
Format: in vivo, human
Conditions: human, plasma, po, 50 mg, multiple oral administration, 50 mg larotinib mesylate, steady state, plasma; read-out: Tmax,ss, median (min–max)
Where a name gives a salt, the structure may show the parent alone.
measuredEndpoint: Tmax (h)
The reply should be a number in h, with the unit left off.

Any idea what Tmax was measured for COc1cc2ncnc(Nc3ccc(F)c(Cl)c3)c2cc1OCCCN1C[C@@H]2OCCO[C@@H]2C1 [larotinib mesylate] ?
5
